Target: human trypsin
Test: Measurement of trypsin inhibitory activity
Conditions: substrate Boc-Phe-Ser-Arg-AMC, Tris-HCl pH 8.0, Dixon plot
Experimental: Using a 96 well plate (#3915, Costar), a test compound (25 μL) was mixed with 20 μM fluorescence enzyme substrate (Boc-Phe-Ser-Arg-AMC, 50 μL) mixed with 200 mM Tris-HCl buffer (pH 8.0), and human trypsin (Sigma, 25 μL) was added. Using a fluorescence plate reader fmax (Molecular Devices, Inc.), the reaction rate was measured from the time-course changes at excitation wavelength 355 nm and fluorescence wavelength 460 nm. […]
metric: Ki (nM)

Sample answers from the record:
>>> experimentalresult("CCC(CC)(Cc1ccc(C(=O)Oc2ccc(C(=N)N)cc2F)s1)C(=O)N[C@@H](CCC(=O)O)c1nnn[nH]1")
3.27
>>> experimentalresult("CCC(CC)(Cc1ccc(C(=O)Oc2ccc(C(=N)N)cc2F)s1)C(=O)Nc1cccc(S(=O)(=O)O)c1")
1.17
>>> experimentalresult("CC(C)(Cc1ccc(C(=O)Oc2ccc(C(=N)N)cc2F)s1)C(=O)N[C@H]1CC=CC[C@H]1C(=O)O")
1.98
>>> experimentalresult("CC(C)(Cc1ccc(C(=O)Oc2ccc(C(=N)N)cc2F)s1)C(=O)N[C@H](C(=O)O)c1ccc(O)cc1")
0.96

A: CCC(CC)(Cc1ccc(C(=O)Oc2ccc(C(=N)N)cc2F)s1)C(=O)NCC(=O)O
B: CC(C)(Cc1ccc(C(=O)Oc2ccc(C(=N)N)cc2F)s1)C(=O)N1C[C@H](O)C[C@H]1C(=O)O
For A and B , which recorded Ki is lower? Record your answer as the label of the chosen record.
B
